Across several studies, compounds have been characterized by their log10(Ki) on D(3) dopamine receptor (Homo sapiens, UniProt P35462); a selection follows.
Sequence (P35462 whole entry): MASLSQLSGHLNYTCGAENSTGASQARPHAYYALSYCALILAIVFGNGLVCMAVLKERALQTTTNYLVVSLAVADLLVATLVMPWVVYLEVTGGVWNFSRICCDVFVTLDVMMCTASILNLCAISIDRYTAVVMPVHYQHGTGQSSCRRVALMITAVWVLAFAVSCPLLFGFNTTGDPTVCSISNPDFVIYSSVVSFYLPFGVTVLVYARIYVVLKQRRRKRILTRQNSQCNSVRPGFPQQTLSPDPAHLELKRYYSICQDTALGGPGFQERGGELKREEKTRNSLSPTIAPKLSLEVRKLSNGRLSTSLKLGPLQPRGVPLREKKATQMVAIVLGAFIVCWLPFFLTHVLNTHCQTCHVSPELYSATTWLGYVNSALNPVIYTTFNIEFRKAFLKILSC
Units before log transform: nM; reported quantity: Ki; transform: log10.

O=C(CCCCC(=O)OC1(c2ccc(Cl)cc2)CCN(CCCC(=O)c2ccc(F)cc2)CC1)OC1(c2ccc(Cl)cc2)CCN(CCCC(=O)c2ccc(F)cc2)CC1
1.04
CCN(Cc1ccc(-c2cc(S(=O)(=O)CC)ccc2OC)[nH]1)[C@H](C)c1ccccc1
-0.10
COc1ccccc1N1CCN(CCCCc2cc(-c3ccccc3)no2)CC1
0.98

Provide one value: measured log10(Ki) of COc1ccccc1N1CCN(CC(O)CCn2cc(-c3ccccc3)nn2)CC1 (racemic) 2.24

# return recorded log10(Ki) for entry COc1ccccc1N1CCN(CCCNC(=O)NN(Cc2ccc(C#N)cc2)c2ccc(F)cc2)CC1 2.81

Note down log10(Ki) recorded for Cc1ccc(N2CCN(Cc3ccc4c(c3)OCC(=O)N4)CC2)cc1C 1.89

====

Recorded log10 Ki for molecules tested on D(3) dopamine receptor (Homo sapiens), drawn from a number of studies.
Heads up: the numbers are on a log10 scale; they represent Ki in µM.

COc1ccccc1N1CCN(CCCCCc2cn(-c3ccc(-c4ccsc4)cc3)nn2)CC1
-2.20
C=CCN1C[C@H](OC(=O)Nc2cccc(N(C)C)c2)C[C@H]1CNC(=O)c1cc(CCCF)cc(OC)c1OC
-1.97
COc1cc(CN2CCN(c3ccccc3OC)CC2)ccc1OCCCCc1cn(CCCCCCCCCCn2cc(CCCCOc3ccc(CN4CCN(c5ccccc5OC)CC4)cc3OC)nn2)nn1
-1.13
CCN1C[C@H](OC(=O)Nc2ccc(-c3ccsc3)cc2)C[C@H]1CNC(=O)c1cc(CCCF)cc(OC)c1OC
-2.37
Fc1ccc(-c2cc(CCCCN3CCN(c4ccccc4)CC3)on2)cc1
-1.92
CCS(=O)(=O)c1ccc(OC)c(-c2ccc(CN3CCCCC3)[nH]2)c1
-1.60

Shifting focus to the molecule that follows.
Return the recorded log10 Ki value; entry: Cn1cc(CN2CCC(O)(c3ccc(Cl)cc3)CC2)c2ccccc21 -0.62

====

Below, pKi values reported for D(3) dopamine receptor (Homo sapiens) across several publications.
The read-out pKi is expressed as -log10 of concentration in moles per litre.

Oc1ccc(OCCNCCCOc2ccccc2)cc1
6.63
COc1c(Cl)cc(Cl)c(O)c1C(=O)NCCN1CCN(c2cccc(Cl)c2Cl)CC1
6.30

Fill in reported pKi for this entry: O=C(NCCCCN1CCN(c2cccc(Cl)c2Cl)CC1)c1cc2ccc1CCc1ccc(cc1)CC2 8.44

Supply recorded pKi for O=C1CCc2ccc(OCCCCN3CCN(c4ccccc4OCCF)CC3)cc2N1 here. 7.87

====

The compounds below each have a reported pKi tested on D(3) dopamine receptor (Homo sapiens, UniProt P35462); the values come from various publications.
Interpret pKi as the negative base-10 log of the concentration measured in mol/L.

Completed entries (count: 5):
COc1ccc2c(c1)[C@H]1OCCN(CCCCNC(=O)c3ccc(-c4ccccc4)cc3)[C@@H]1CO2 (racemic)
7.74
CCS(=O)(=O)c1ccc(OC)c(-c2ccc(CN3CCOCC3)[nH]2)c1
6.10
COc1ccccc1N1CCN(CCCNC(=O)NCc2ccccc2-c2ccc(-c3ccccc3)cc2)CC1
6.43
COc1ccccc1N1CCN(CCCCN2C(=O)C=C(c3ccccc3)C2=O)CC1
6.49
CCCN(CCCCNC(=O)c1ccc(-c2ccccc2)cc1)C1CCc2ncncc2C1 (stereo not given)
6.90

Retrieve pKi measured for CC(C)(C)c1nc(N2CCN(CCCCN3C(=O)CCCc4ccccc43)CC2)cc(C(F)(F)F)n1 and print it. 7.77

Identify the reported pKi for the following entry. COc1ccc2onc(N3CCN(CCCCNC(=O)c4ccc5nonc5c4)CC3)c2c1 7.07

Supply reported pKi belonging to this compound: C#CC1=CC[C@@H](N(CCC)CCCCNC(=O)c2cc3ccccc3s2)CC1 9.37

Specify pKi for c1ccc(Cc2ccccc2NCCN2CCCC2)cc1 and stop. 5.33

Return reported pKi. Input compound: Fc1ccccc1N1CCN(CCCCc2cc(/C=C/c3ccccc3)no2)CC1 8.00

Hello, please tell me recorded pKi for this one: Cc1ccc(C)c(C(=O)NCCCCN2CCN(c3cc(C)ccc3C)CC2)c1 7.55

Assign pKi to the following record: COc1ccccc1N1CCN(CCCCNc2ccccn2)CC1 9.10
